Papp overview
protocol: in vitro
condition.description: PAMPA, PAMPA_Papp_Avg
Where a SMILES comes first, the peptide text is derived from it. [ ]: non-standard residue; d: D form. dNMeF = CN[C@H](Cc1ccccc1)C(=O)O; NMeL = CN[C@@H](CC(C)C)C(=O)O; dNMeL = CN[C@H](CC(C)C)C(=O)O; NMeV = CN[C@H](C(=O)O)C(C)C; dNMeA = CN[C@H](C)C(=O)O
measured.endpoint: Papp (×10⁻⁶ cm/s)

compound="CC[C@H](C)[C@@H]1NC(=O)[C@@H]2CCCN2C(=O)[C@H]2CCCN2C(=O)[C@@H](Cc2ccccc2)NC(=O)[C@@H](CC(C)C)N(C)C(=O)[C@H](C(C)C)NC(=O)[C@@H](CC(C)C)NC(=O)[C@@H]2CCCN2C(=O)[C@H]2CCCN2C(=O)[C@@H](C)N(C)C(=O)[C@H](C(C)C)N(C)C1=O [Design D11.21] (cyclo(I[NMeV][dNMeA][dP]P[dL]V[dNMeL][dF][dP]P))" assay_result=0.24
compound="CC(C)C[C@H]1NC(=O)[C@@H]2CCCN2C(=O)[C@@H](C(C)C)NC(=O)[C@@H](C)N(C)C(=O)[C@@H](C(C)C)NC(=O)[C@@H]2CCCN2C(=O)[C@@H](Cc2ccccc2)NC(=O)[C@H](CC(C)C)N(C)C(=O)[C@@H](C(C)C)NC1=O [Design D9.5] (cyclo([NMeL][dF]P[dV][dNMeA][dV]P[dL][dV]))" assay_result=3.51
compound="CC[C@@H](C)[C@H]1NC(=O)[C@H](CC(C)C)NC(=O)[C@@H](CC(C)C)NC(=O)[C@H](C(C)C)NC(=O)[C@@H](Cc2ccccc2)N(C)C(=O)[C@@H]2CCCN2C(=O)[C@@H](CC(C)C)NC(=O)[C@H](CC(C)C)N(C)C(=O)[C@H]2CCCN2C1=O [Design D9.3] (cyclo(L[dI][dP][NMeL][dL]P[dNMeF]V[dL]))" assay_result=2.33
compound="CC(C)C[C@@H]1NC(=O)[C@@H](CC(C)C)NC(=O)[C@H]2CCCN2C(=O)[C@@H]2CCCN2C(=O)[C@@H](CC(C)C)NC(=O)[C@@H](CC(C)C)N(C)C(=O)[C@@H]2CCCN2C1=O [Design D7.5, LEU PRO *DLEU DLEU PRO DPRO DLEU] (cyclo(LP[dNMeL][dL]P[dP][dL]))" assay_result=6.64
compound="CC(C)C[C@@H]1NC(=O)[C@@H](C)N(C)C(=O)[C@@H](CC(C)C)N(C)C(=O)[C@@H]2CCCN2C(=O)[C@H]2CCCN2C(=O)[C@@H](C)NC(=O)[C@@H]2CCCN2C(=O)[C@H]2CCCN2C(=O)[C@@H](CC(C)C)NC1=O [Design D9.27] (cyclo([dA][dP]P[dNMeL][dNMeA]L[dL][dP]P))" assay_result=0.0334
compound="CC[C@H](C)[C@@H]1NC(=O)[C@H](C(C)C)N(C)C(=O)[C@H]2CCCN2C(=O)[C@H]([C@@H](C)CC)NC(=O)[C@@H](CC(C)C)N(C)C(=O)[C@@H](C)NC(=O)[C@@H]2CCCN2C(=O)[C@H]2CCCN2C(=O)[C@H](CC(C)C)NC(=O)[C@@H](Cc2ccccc2)NC(=O)[C@H](CC(C)C)NC(=O)[C@H]2CCCN2C1=O [Design D12.3] (cyclo([dA][dNMeL]I[dP][NMeV]I[dP]L[dF]L[dP]P))" assay_result=0.789
